Measured AUC(0-inf), listed per entry for reference.
Test: In vivo pharmacokinetic study, intravenous bolus
Details: male, Hans Wistar; rat, 1 mg/kg intravenous bolus, plasma; read-out: AUC∞ Plasma

compound	AUC(0-inf) / ng·h/mL
COc1ccc(Cl)c(C(=O)NCC23CC4CC(CC(F)(C4)C2)C3)c1 [Compound 3]	178
COc1ccc(Cl)c(C(=O)NCC23CC4CC(CC(C4)C2)C3)c1 [Compound 31, reference compound]	192
COc1ccc(Cl)c(C(=O)NCC23CC4CC(F)(CC(F)(C4)C2)C3)c1 [Compound 2]	199
COc1ccc(Cl)c(C(=O)NCC23CC4(F)CC(F)(CC(F)(C4)C2)C3)c1 [Compound 1]	399

###

Assay: Lipophilicity: Log D7.4 determined by HPLC method
Format: physicochemical
Details: reversed-phase HPLC, Waters Sunfire C18 5 µm column; HPLC retention time, 65 v/v % methanol in 50 mM sodium phosphate buffer pH 7.4; read-out: logD7.4
Measured chromatographic logD, listed per entry for reference.

compound	chromatographic logD
COc1ccc(Cl)c(C(=O)NCC23CC4(F)CC(F)(CC(F)(C4)C2)C3)c1	2.83
COc1ccc(Cl)c(C(=O)NCC23CC4CC(CC(F)(C4)C2)C3)c1	3.27
COc1ccc(Cl)c(C(=O)NCC23CC4CC(F)(CC(F)(C4)C2)C3)c1	2.85
COc1ccc(Cl)c(C(=O)NCC23CC4CC(CC(C4)C2)C3)c1 [Compound 31, reference compound]	4.23

###

Target: mP2X7R (Mus musculus)
Construct: gift from Dr Leanne Stokes and Prof; Jim Wiley
Sequence (Q9Z1M0 whole entry): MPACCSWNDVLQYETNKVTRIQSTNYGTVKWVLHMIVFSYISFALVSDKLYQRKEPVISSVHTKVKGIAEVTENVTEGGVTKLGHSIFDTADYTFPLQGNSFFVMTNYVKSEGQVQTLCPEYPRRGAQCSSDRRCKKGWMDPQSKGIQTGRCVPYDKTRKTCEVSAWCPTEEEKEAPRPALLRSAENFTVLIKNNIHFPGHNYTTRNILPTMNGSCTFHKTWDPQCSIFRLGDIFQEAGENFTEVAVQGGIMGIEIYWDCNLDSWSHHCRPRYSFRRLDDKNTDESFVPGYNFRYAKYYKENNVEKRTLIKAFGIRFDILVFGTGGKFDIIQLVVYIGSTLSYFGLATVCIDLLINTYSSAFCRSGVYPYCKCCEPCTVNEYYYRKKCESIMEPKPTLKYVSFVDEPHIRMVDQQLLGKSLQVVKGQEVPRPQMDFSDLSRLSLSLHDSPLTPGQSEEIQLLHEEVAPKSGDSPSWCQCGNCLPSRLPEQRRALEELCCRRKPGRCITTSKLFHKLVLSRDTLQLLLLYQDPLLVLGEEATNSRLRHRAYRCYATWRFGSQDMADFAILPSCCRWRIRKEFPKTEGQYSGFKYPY
Test: Calcium influx assay in HEK-mP2X7 cells
Conditions: HEK cells expressing mP2X7R, BzATP 100 μM; mean ± standard deviation, n >3
Measured IC50, listed per entry for reference.
measured.property: IC50 (µM)

molecule	readout.unit	measured.result
COc1ccc(Cl)c(C(=O)NCC23CC4CC(CC(F)(C4)C2)C3)c1	µM	1.51
COc1ccc(Cl)c(C(=O)NCC23CC4CC(F)(CC(F)(C4)C2)C3)c1	µM	0.575
COc1ccc(Cl)c(C(=O)NCC23CC4(F)CC(F)(CC(F)(C4)C2)C3)c1	µM	0.158
COc1ccc(Cl)c(C(=O)NCC23CC4CC(CC(C4)C2)C3)c1 [Compound 31, reference compound]	µM	1.91

###

Measured AUC(0-inf), listed per entry for reference.
Assay: In vivo pharmacokinetic study, intravenous bolus
Conditions: male, Hans Wistar; rat, 1 mg/kg intravenous bolus, brain; read-out: AUC∞ Brain

molecule	AUC(0-inf) [ng·h/mL]
COc1ccc(Cl)c(C(=O)NCC23CC4CC(CC(C4)C2)C3)c1 [Compound 31, reference compound]	246
COc1ccc(Cl)c(C(=O)NCC23CC4CC(F)(CC(F)(C4)C2)C3)c1 [Compound 2]	217
COc1ccc(Cl)c(C(=O)NCC23CC4(F)CC(F)(CC(F)(C4)C2)C3)c1 [Compound 1]	386
COc1ccc(Cl)c(C(=O)NCC23CC4CC(CC(F)(C4)C2)C3)c1 [Compound 3]	291

###

Experiment: Lipophilicity: Log D7.4 determined by HPLC method
Format: physicochemical
Details: HPLC retention time, 65 v/v % methanol in 50 mM sodium phosphate buffer pH 7.4
Measured logD7.4, listed per entry for reference.

molecule	logD7.4
COc1ccc(Cl)c(C(=O)NCC23CC4CC(CC(F)(C4)C2)C3)c1 [Compound 3]	3.27
COc1ccc(Cl)c(C(=O)NCC23CC4CC(CC(C4)C2)C3)c1 [Compound 31, reference compound]	4.23
COc1ccc(Cl)c(C(=O)NCC23CC4(F)CC(F)(CC(F)(C4)C2)C3)c1 [Compound 1]	2.83
COc1ccc(Cl)c(C(=O)NCC23CC4CC(F)(CC(F)(C4)C2)C3)c1 [Compound 2]	2.85

###

Experiment: Plasma protein binding, rapid equilibrium dialysis
Format: in vitro ADME
Conditions: rat plasma, 4 hours 37° C., read-out: pb (% bound) Plasma (converted)

compound	fraction unbound at 4 h, 1 μM
COc1ccc(Cl)c(C(=O)NCC23CC4CC(F)(CC(F)(C4)C2)C3)c1	0.115
COc1ccc(Cl)c(C(=O)NCC23CC4CC(CC(C4)C2)C3)c1 [Compound 31, reference compound]	0.0079
COc1ccc(Cl)c(C(=O)NCC23CC4(F)CC(F)(CC(F)(C4)C2)C3)c1	0.105
COc1ccc(Cl)c(C(=O)NCC23CC4CC(CC(F)(C4)C2)C3)c1	0.0597

###

Target: CYP2C9 (Homo sapiens, UniProt P11712)
Construct: host or cells: insect cells infected with recombinant baculovirus (microsomes)
Sequence (P11712 whole entry): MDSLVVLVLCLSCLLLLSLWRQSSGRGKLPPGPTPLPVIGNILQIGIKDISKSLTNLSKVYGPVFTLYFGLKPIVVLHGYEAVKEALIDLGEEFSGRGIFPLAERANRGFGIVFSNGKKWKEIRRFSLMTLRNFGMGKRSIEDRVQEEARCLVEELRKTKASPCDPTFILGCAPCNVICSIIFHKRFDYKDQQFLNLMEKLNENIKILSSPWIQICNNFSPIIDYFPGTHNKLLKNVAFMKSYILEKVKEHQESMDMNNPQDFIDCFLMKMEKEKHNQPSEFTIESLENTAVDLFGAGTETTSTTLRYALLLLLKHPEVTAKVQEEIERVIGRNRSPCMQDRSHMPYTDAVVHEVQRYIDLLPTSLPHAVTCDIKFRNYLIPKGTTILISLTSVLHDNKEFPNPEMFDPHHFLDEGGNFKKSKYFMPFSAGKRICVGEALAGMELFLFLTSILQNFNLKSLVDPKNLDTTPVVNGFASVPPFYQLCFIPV
Test: Cytochrome profiling CYP2C9 (baculosomes)
Type: in vitro ADME
Details: probe fluorogenic probe substrate (not named), 10 μM substrate

molecule	target.or.test.system	inhibition at 60 min, 1 μM
COc1ccc(Cl)c(C(=O)NCC23CC4CC(F)(CC(F)(C4)C2)C3)c1 [Compound 2]	CYP2C9 (Homo sapiens, UniProt P11712)	-3%
COc1ccc(Cl)c(C(=O)NCC23CC4CC(CC(C4)C2)C3)c1 [Compound 31, reference compound]	CYP2C9 (Homo sapiens, UniProt P11712)	75%
COc1ccc(Cl)c(C(=O)NCC23CC4(F)CC(F)(CC(F)(C4)C2)C3)c1 [Compound 1]	CYP2C9 (Homo sapiens, UniProt P11712)	9.26%
COc1ccc(Cl)c(C(=O)NCC23CC4CC(CC(F)(C4)C2)C3)c1 [Compound 3]	CYP2C9 (Homo sapiens, UniProt P11712)	32.3%

###

Measured half-life, listed per entry for reference.
Test: In vivo pharmacokinetic study, intravenous bolus
Settings: male, Hans Wistar; rat, 1 mg/kg intravenous bolus, plasma; read-out: T1/2 Plasma (converted)

molecule	readout.unit	half-life
COc1ccc(Cl)c(C(=O)NCC23CC4CC(F)(CC(F)(C4)C2)C3)c1 [Compound 2]	min	28.2
COc1ccc(Cl)c(C(=O)NCC23CC4CC(CC(F)(C4)C2)C3)c1 [Compound 3]	min	25.8

###

Target: CYP1A2 (Homo sapiens)
Construct: host or cells: insect cells infected with recombinant baculovirus (microsomes)
Sequence (P05177 whole entry): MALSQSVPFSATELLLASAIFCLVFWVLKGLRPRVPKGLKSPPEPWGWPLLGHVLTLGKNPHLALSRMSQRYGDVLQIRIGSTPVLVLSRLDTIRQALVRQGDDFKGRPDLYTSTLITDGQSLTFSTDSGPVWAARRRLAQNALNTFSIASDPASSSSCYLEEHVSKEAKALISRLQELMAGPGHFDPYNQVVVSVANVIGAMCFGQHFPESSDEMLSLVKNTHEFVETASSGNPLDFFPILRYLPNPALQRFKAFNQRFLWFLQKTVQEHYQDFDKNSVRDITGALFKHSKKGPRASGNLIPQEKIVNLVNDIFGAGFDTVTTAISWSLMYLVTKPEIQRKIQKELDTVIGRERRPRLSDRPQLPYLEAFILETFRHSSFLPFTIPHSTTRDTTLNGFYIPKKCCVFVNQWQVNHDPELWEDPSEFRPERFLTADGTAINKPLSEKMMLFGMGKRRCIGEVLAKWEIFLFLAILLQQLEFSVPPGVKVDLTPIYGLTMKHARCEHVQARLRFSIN
Test: Cytochrome profiling CYP1A2 (baculosomes)
Format: in vitro ADME
Details: probe fluorogenic probe substrate (not named), 10 μM substrate
Source text: Cytochrome P450 (abbreviated CYP, P450 or CYP450) belong to very large and diverse superfamily of haemoproteins which accept both exogenous and endogenous compounds as substrates in enzymatic reactions and play a major role in drug metabolism. Although this class has more than 50 enzymes just 5 of them (CYP1A2, CYP2C9, CYP2C19, CYP2D6 and CYP3A4) are able to metabolise almost 90% of all drugs. Inhibition of these enzymes is one of the major reasons for drug-drug interactions. […]
measured.property: inhibition at 60 min, 1 μM (%)

compound	measured.property	measured.result
COc1ccc(Cl)c(C(=O)NCC23CC4(F)CC(F)(CC(F)(C4)C2)C3)c1 [Compound 1]	inhibition at 60 min, 1 μM	5.48
COc1ccc(Cl)c(C(=O)NCC23CC4CC(CC(F)(C4)C2)C3)c1 [Compound 3]	inhibition at 60 min, 1 μM	7.86
COc1ccc(Cl)c(C(=O)NCC23CC4CC(CC(C4)C2)C3)c1 [Compound 31, reference compound]	inhibition at 60 min, 1 μM	25.7
COc1ccc(Cl)c(C(=O)NCC23CC4CC(F)(CC(F)(C4)C2)C3)c1 [Compound 2]	inhibition at 60 min, 1 μM	7.04

###

Experiment: In vivo pharmacokinetic study, intravenous bolus
Conditions: rat, 1 mg/kg intravenous bolus, brain
measured.property: Cmax Brain (ng/mL)

compound	measured.property	readout.unit	measured.result
COc1ccc(Cl)c(C(=O)NCC23CC4CC(CC(F)(C4)C2)C3)c1	Cmax Brain	ng/mL	2422
COc1ccc(Cl)c(C(=O)NCC23CC4CC(F)(CC(F)(C4)C2)C3)c1	Cmax Brain	ng/mL	1838
COc1ccc(Cl)c(C(=O)NCC23CC4CC(CC(C4)C2)C3)c1 [Compound 31, reference compound]	Cmax Brain	ng/mL	1696
COc1ccc(Cl)c(C(=O)NCC23CC4(F)CC(F)(CC(F)(C4)C2)C3)c1	Cmax Brain	ng/mL	1464
